Measured IC50 of individual entries
- tested on: FAAH (Homo sapiens)
- Sequence (O00519 1-579): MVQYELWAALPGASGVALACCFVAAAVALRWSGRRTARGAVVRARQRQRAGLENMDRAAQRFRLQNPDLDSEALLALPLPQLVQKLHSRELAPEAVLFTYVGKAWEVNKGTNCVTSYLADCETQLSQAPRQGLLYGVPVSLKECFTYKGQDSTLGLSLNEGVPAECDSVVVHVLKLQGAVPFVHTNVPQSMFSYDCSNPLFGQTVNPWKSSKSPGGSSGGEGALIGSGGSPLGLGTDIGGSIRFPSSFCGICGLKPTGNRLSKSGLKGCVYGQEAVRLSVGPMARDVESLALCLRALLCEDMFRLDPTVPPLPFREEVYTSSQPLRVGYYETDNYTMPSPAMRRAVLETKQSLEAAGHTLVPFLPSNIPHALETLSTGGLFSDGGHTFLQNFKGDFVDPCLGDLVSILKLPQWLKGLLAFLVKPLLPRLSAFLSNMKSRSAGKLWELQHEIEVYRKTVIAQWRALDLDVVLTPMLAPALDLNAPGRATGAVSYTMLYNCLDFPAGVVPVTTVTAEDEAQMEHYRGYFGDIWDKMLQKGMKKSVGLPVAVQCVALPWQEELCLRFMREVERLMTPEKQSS

{"columns": ["compound", "test value"],
 "data": [
  ["O=C(O)c1ccn(C(=O)N2CCN(Cc3ccc(N4CCCC4)cc3C(F)(F)F)CC2)n1 [Example 167]", "1 to 10 µM"],
  ["O=C(O)c1nn(C(=O)N2CC3CC(OCc4ccccc4Cl)CC3C2)cc1C(F)(F)F (stereo not shown) [Example 143]", "0.1 to 1 µM"],
  ["NC(=O)c1ccn(C(=O)N2CCN(Cc3cnccc3C(F)(F)F)CC2)n1 [Example 175]", "0.1 to 1 µM"]
]}

Kindly consider the entry below.
IC50 reported for this compound O=C(O)c1ccn(C(=O)N2CCN(Cc3ccc(C(F)(F)F)cc3N3CCCCC3)CC2)n1 [Example 100] : 1 to 10 µM

Data provenance: patent US10266497B2
